Entries and their measured growth follow.
system: HT29 colon; test: NCI-60 one-dose screen, 48 h (100 = growth as untreated, 0 = no growth, -100 = all killed); conditions: 10 µM unless noted
This is part of a sample that, as a whole, favours compounds with a hit. Of some 83,000 tested, about 20% had one in any assay.
MEASURED METRIC: growth (%)

COMPOUND	MEASURED METRIC	RESULT VALUE
Cc1sc2nc(NCCN)[nH]c(=O)c2c1C	growth	95.1
O=S(=O)(N=C1C(Cl)=C(Cl)C(=NS(=O)(=O)c2ccccc2)C(Cl)=C1Cl)c1ccccc1	growth	14
COC(=O)c1nc(-c2ccccc2)oc1S(=O)(=O)N1CCCC(C)C1 (stereo not given)	growth	56.3
CC(C)c1ccc2c(c1)CC[C@H]1[C@](C)(C(=O)OCC#CCN3CCCC3)CCC[C@]21C	growth	36.8
COc1cc2c(c(OC)c1OC)CCC(c1cccc(C(=O)Nc3ccc(Br)cc3)c1)O2 (stereo not given)	growth	65.7
